system: UniProt:Q96EB6
Sequence (Q96EB6 whole entry): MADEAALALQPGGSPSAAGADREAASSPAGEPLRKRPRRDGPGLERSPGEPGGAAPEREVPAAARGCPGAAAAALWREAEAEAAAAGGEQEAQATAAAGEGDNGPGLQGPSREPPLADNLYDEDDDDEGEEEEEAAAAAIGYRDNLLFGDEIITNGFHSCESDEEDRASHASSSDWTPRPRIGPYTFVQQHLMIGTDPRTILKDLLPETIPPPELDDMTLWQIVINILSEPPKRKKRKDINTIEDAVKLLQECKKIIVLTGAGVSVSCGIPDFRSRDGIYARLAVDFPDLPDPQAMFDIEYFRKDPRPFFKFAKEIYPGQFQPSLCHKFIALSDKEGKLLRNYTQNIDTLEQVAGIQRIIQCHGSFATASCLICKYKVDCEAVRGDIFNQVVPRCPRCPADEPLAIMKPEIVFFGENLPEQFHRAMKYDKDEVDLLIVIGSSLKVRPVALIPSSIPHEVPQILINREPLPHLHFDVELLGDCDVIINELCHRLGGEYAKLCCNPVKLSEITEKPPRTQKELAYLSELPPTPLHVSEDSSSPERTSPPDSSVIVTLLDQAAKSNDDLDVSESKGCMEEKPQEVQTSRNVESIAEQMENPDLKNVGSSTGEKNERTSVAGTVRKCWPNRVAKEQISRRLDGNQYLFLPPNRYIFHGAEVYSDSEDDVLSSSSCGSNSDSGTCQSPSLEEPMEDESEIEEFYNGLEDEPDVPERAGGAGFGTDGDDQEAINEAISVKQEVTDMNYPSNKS
assayInfo: TAMRA based mass spectrometry assay of SIRT1 activity
Format: biochemical
conditionDetails: TAMRA assay; concentration giving 150% activation of SIRT1
outcomeMeasure: TAMRA EC1.5 (μM)

Check out these entries, answers already filled in.
{"columns": ["molecule", "outcomeMeasure", "value"],
 "data": [
  ["O=C(Nc1cnn2ccc(-c3ccccc3OC(F)(F)F)nc12)c1cccc(-n2cnnc2)n1 [Compound 769]", "TAMRA EC1.5 (μM)", "A (EC1.5<1 μM)"],
  ["Cc1ccncc1NC(=O)c1cnn2ccc(-c3ccccc3C(F)(F)F)nc12 [Compound 640]", "TAMRA EC1.5 (μM)", "B (EC1.5 1-25 μM)"],
  ["Cc1cc(NC(=O)c2c(C)nc3ccc(-c4ccccc4OC[C@H](O)CO)nn23)nc(C)n1 [Compound 818]", "TAMRA EC1.5 (μM)", "A (EC1.5<1 μM)"],
  ["O=C(Nc1cnn2ccc(-c3ccccc3OC(F)(F)F)nc12)c1ncc(F)cc1F [Compound 755]", "TAMRA EC1.5 (μM)", "A (EC1.5<1 μM)"],
  ["Cc1ccc(C(=O)Nc2cnc3ccc(-c4ccccc4C(F)(F)F)nn23)c(C)n1 [Compound 394]", "TAMRA EC1.5 (μM)", "B (EC1.5 1-25 μM)"],
  ["Cc1nc2ccc(-c3cccc(OC[C@H](O)CO)c3)nn2c1C(=O)Nc1ccc(F)cn1 [Compound 821]", "TAMRA EC1.5 (μM)", "B (EC1.5 1-25 μM)"],
  ["Cc1scnc1C(=O)Nc1cnn2ccc(-c3ccccc3OC(F)(F)F)nc12 [Compound 756]", "TAMRA EC1.5 (μM)", "B (EC1.5 1-25 μM)"],
  ["Cc1nc2ccc(-c3cccc(OC[C@H](O)CO)c3)nn2c1C(=O)Nc1ccncc1F [Compound 822]", "TAMRA EC1.5 (μM)", "A (EC1.5<1 μM)"]
]}

Q: Answer with the recorded TAMRA EC1.5 (μM) of Cc1nc(C(=O)Nc2cnc3ccc(-c4ccccc4OC(F)(F)F)nn23)cs1 [Compound 317] only.
Result: A (EC1.5<1 μM)

Q: Answer with the recorded TAMRA EC1.5 (μM) of Cc1cnc(C(=O)Nc2cnc3ccc(-c4ccccc4C#N)nn23)s1 [Compound 336] only.
Result: B (EC1.5 1-25 μM)

Q: Answer with the recorded TAMRA EC1.5 (μM) of Cc1nc(NC(=O)c2cnc3ccc(-c4ccccc4C(F)(F)F)nn23)sc1C [Compound 237] only.
Result: A (EC1.5<1 μM)

Q: Answer with the recorded TAMRA EC1.5 (μM) of Cc1cccnc1NC(=O)c1c(C)nn2ccc(-c3ccccc3C(F)(F)F)nc12 [Compound 722] only.
Result: B (EC1.5 1-25 μM)

Q: Answer with the recorded TAMRA EC1.5 (μM) of Cc1cc(OCC(O)CO)nc(NC(=O)c2cnc3ccc(-c4ccccc4Cl)nn23)n1 (stereo not shown) [Compound 285] only.
Result: B (EC1.5 1-25 μM)

Q: Answer with the recorded TAMRA EC1.5 (μM) of O=C(Nc1cnc2ccc(-c3ccccc3C(F)(F)F)nn12)c1cncc(OC[C@@H](O)CO)n1 [Compound 645] only.
Result: A (EC1.5<1 μM)

Q: Answer with the recorded TAMRA EC1.5 (μM) of Cc1ccc(NC(=O)c2cnn3ccc(-c4ccccc4C(F)(F)F)nc23)nc1 [Compound 618] only.
Result: A (EC1.5<1 μM)

Q: Answer with the recorded TAMRA EC1.5 (μM) of Cc1cc(C)nc(NC(=O)c2cnc3ccc(-c4ccccc4C(F)(F)F)nn23)n1 [Compound 247] only.
Result: A (EC1.5<1 μM)

Q: Answer with the recorded TAMRA EC1.5 (μM) of Cc1cc(NC(=O)c2cnc3ccc(-c4cccc(OCC(O)CO)c4)nn23)ccn1 (stereo not shown) [Compound 374] only.
Result: B (EC1.5 1-25 μM)

Q: Answer with the recorded TAMRA EC1.5 (μM) of Cc1nc2ccc(-c3ccccc3C(F)(F)F)nn2c1NC(=O)c1cnccn1 [Compound 376] only.
Result: B (EC1.5 1-25 μM)

Q: Answer with the recorded TAMRA EC1.5 (μM) of COc1cc(NC(=O)c2cnn3ccc(-c4ccccc4OC(F)(F)F)nc23)ncn1 [Compound 703] only.
Result: A (EC1.5<1 μM)

Q: Answer with the recorded TAMRA EC1.5 (μM) of Cc1nc(C(=O)Nc2cnc3ccc(-c4ccccc4C(F)(F)F)nn23)c(C)s1 [Compound 220] only.
Result: A (EC1.5<1 μM)

Q: Answer with the recorded TAMRA EC1.5 (μM) of O=C(Nc1cnn2ccc(-c3ccccc3OC(F)(F)F)nc12)c1ncccc1F [Compound 754] only.
Result: A (EC1.5<1 μM)

Q: Answer with the recorded TAMRA EC1.5 (μM) of O=C(Nc1cnn2ccc(-c3ccccc3OC(F)(F)F)nc12)c1cscn1 [Compound 785] only.
Result: B (EC1.5 1-25 μM)

Q: Answer with the recorded TAMRA EC1.5 (μM) of COc1ccc(NC(=O)c2c(C)nc3ccc(-c4ccccc4C(F)(F)F)nn23)nn1 [Compound 665] only.
Result: A (EC1.5<1 μM)

Q: Answer with the recorded TAMRA EC1.5 (μM) of Cc1ccc(NC(=O)c2c(C)nc3ccc(-c4cccc(F)c4)nn23)nn1 [Compound 716] only.
Result: B (EC1.5 1-25 μM)
